Molecular target: T1, IL10Rα/IL2Rγ receptor (human, UniProt Q13651 22-578; P31785 23-369)
T1 sequence (looked up) 1: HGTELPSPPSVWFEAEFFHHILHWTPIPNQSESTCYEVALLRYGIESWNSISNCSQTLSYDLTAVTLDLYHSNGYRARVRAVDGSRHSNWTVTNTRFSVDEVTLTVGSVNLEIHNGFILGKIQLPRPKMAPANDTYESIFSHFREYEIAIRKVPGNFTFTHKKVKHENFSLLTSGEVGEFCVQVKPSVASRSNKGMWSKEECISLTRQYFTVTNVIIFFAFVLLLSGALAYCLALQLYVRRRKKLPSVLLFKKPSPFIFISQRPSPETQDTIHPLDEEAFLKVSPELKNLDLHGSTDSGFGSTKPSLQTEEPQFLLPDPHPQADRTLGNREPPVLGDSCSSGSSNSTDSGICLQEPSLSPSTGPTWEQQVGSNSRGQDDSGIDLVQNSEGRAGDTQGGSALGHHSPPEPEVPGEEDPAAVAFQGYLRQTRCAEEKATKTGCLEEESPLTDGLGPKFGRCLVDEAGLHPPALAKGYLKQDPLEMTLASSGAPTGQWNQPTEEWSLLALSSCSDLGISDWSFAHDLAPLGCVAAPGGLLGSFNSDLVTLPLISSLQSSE
T1 sequence (looked up) 2: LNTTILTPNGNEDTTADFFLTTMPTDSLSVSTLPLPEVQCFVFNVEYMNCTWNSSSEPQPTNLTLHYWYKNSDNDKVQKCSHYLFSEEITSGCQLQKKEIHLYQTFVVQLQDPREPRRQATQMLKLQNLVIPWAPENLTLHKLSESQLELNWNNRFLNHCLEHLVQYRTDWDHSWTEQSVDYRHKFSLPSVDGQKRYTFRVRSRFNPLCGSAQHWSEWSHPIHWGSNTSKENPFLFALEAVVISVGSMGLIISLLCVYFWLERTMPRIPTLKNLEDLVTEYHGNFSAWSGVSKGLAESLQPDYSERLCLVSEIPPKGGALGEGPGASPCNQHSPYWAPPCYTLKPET
Assay: cell-based or functional assay
Recorded pSTAT3 MFI, B cells, 10 nM (unstimulated 1193.5), one value per entry.
# value in MFI; strip the unit string

Observe how each entry below is paired with its result.
Inquiry: Return reported pSTAT3 MFI, B cells, 10 nM (unstimulated 1193.5); argument: DR471(DR241-DR231) (bispecific antibody) QVQLQESGGGSVQAGGSLRLSCAASGYSNCSYDMTWYRQAPGKEREFVSAIHSDGSTRYADSVKGRFFISQDNAKNTVYLQMNSLKPEDTAMYYCKTDPLHCRAHGGSWYSVRANYWGQGTQVTVSSGGGSQVQLQESGGGSVQAGGSLRLSCTASGFTFDDREMNWYRQAPGNECELVSTISSDGSTYYADSVKGRFTISQDNAKNTVYLQMDSVKPEDTAVYYCAADFMIAIQAPGAGCWGQGTQVTVSSASHHHHHH
Reply text: 1340

Inquiry: Would you mind doing DR441(DR236-DR231) (bispecific antibody) QVQLQESGGGSVQAGGSLRLSCAASRFTYSSYCMGWFRQAPGKEREGVASIDSDGSTSYTDSVKGRFTISKDNAKNTLYLQMNSLKPEDTAMYYCALDLMSTVVPGFCGFLLSAGMDYWGKGTQVTVSSGGGSQVQLQESGGGSVQAGGSLRLSCTASGFTFDDREMNWYRQAPGNECELVSTISSDGSTYYADSVKGRFTISQDNAKNTVYLQMDSVKPEDTAVYYCAADFMIAIQAPGAGCWGQGTQVTVSSASHHHHHH as well?
Reply text: 1540

Inquiry: Would you mind doing DR395(DR229-DR239) (bispecific antibody) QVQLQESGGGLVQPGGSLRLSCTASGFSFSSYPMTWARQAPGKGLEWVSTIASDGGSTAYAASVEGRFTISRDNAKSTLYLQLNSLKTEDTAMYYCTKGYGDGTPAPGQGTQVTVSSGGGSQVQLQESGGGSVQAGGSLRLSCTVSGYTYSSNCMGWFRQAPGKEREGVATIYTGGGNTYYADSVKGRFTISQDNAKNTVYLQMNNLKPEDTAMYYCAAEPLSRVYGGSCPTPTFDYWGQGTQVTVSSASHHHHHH as well?
Reply text: 1340

Pending binder:
Inquiry: Return reported pSTAT3 MFI, B cells, 10 nM (unstimulated 1193.5); argument: DR465(DR240-DR231) (bispecific antibody) QVQLQESGGGSVQAGGSLRLSCGASGYTYSSYCMGWFRQVPGKEREGVAVIDSDGSTSYADSVKGRFTISKDNGKNTLYLQMNSLKPEDTAMYYCAADLGHYRPPCGVLYLGMDYWGKGTQVTVSSGGGSQVQLQESGGGSVQAGGSLRLSCTASGFTFDDREMNWYRQAPGNECELVSTISSDGSTYYADSVKGRFTISQDNAKNTVYLQMDSVKPEDTAVYYCAADFMIAIQAPGAGCWGQGTQVTVSSASHHHHHH
Reply text: 1840
